B1: HDV Ribozyme (parent)
chain: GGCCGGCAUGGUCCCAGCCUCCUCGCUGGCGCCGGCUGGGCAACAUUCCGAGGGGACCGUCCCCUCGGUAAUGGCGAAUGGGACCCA

- Variants of: B1
- TEST DETAILS: self-cleavage, relative activity (ratio to wild type); higher = more cleavage; co-transcriptional
MEASUREMENT NAME: self-cleavage

RESIDUE CHANGE: C14U C36G
MEASUREMENT NAME: self-cleavage
REPORTED MEASUREMENT: 0.322

RESIDUE CHANGE: C30U G82A
MEASUREMENT NAME: self-cleavage
REPORTED MEASUREMENT: 0.229

RESIDUE CHANGE: G1A A71U
MEASUREMENT NAME: self-cleavage
REPORTED MEASUREMENT: 0.256

RESIDUE CHANGE: G10C C86A
MEASUREMENT NAME: self-cleavage
REPORTED MEASUREMENT: 1.04

RESIDUE CHANGE: C33A G55A
MEASUREMENT NAME: self-cleavage
REPORTED MEASUREMENT: 0.159

RESIDUE CHANGE: C24A A87U
MEASUREMENT NAME: self-cleavage
REPORTED MEASUREMENT: 0.749

RESIDUE CHANGE: U47C G52U
MEASUREMENT NAME: self-cleavage
REPORTED MEASUREMENT: 0.698

RESIDUE CHANGE: A8U C57A
MEASUREMENT NAME: self-cleavage
REPORTED MEASUREMENT: 1.05

RESIDUE CHANGE: A43G C58A
MEASUREMENT NAME: self-cleavage
REPORTED MEASUREMENT: 0.629

RESIDUE CHANGE: G17A G73U
MEASUREMENT NAME: self-cleavage
REPORTED MEASUREMENT: 0.188
